assay: 8-day repeat-dose study, tolerability (blood chemistry, hematology, adverse events) in tumor-bearing dogs; format: in vivo, dog; conditions: Dog 3; Post: 30 min after last injection on day 8; 10 mg s.c. once daily for 8 days
Where a SMILES comes first, the peptide text is derived from it. [ ]: non-standard residue; d: D form. Hyp = O=C(O)[C@@H]1C[C@@H](O)CN1
readout: MCV (fL)
Just the number please, in fL, no unit attached.

INPUT: State the recorded MCV for this entry: CC(C)[C@@H]1NC(=O)[C@@H]2C[C@@H](O)CN2C(=O)[C@H]([C@@H](C)O)NC(=O)[C@H](CCCCN)NC(=O)[C@H](CCC(=O)O)NC(=O)[C@H](CC(N)=O)NC(=O)CNC(=O)[C@@H]2C[C@@H](O)CN2C(=O)[C@H](CC(N)=O)NC1=O [AFPep] (cyclo(EKT[Hyp]VN[Hyp]GN))
OUTPUT: 64

----------
assay: 8-day repeat-dose study, tolerability (blood chemistry, hematology, adverse events) in tumor-bearing dogs; type: in vivo, dog; settings: Dog 5; Post: 30 min after last injection on day 8; 10 mg s.c. once daily for 8 days
Where a SMILES comes first, the peptide text is derived from it. [ ]: non-standard residue; d: D form. Hyp = O=C(O)[C@@H]1C[C@@H](O)CN1
readout: GGT (U/L)
Numeric only. Scale: U/L

INPUT: Quick check: GGT of CC(C)[C@@H]1NC(=O)[C@@H]2C[C@@H](O)CN2C(=O)[C@H]([C@@H](C)O)NC(=O)[C@H](CCCCN)NC(=O)[C@H](CCC(=O)O)NC(=O)[C@H](CC(N)=O)NC(=O)CNC(=O)[C@@H]2C[C@@H](O)CN2C(=O)[C@H](CC(N)=O)NC1=O [AFPep] (cyclo(EKT[Hyp]VN[Hyp]GN)) ?
OUTPUT: 18

----------
assay: 8-day repeat-dose study, tolerability (blood chemistry, hematology, adverse events) in tumor-bearing dogs; type: in vivo, dog; details: Dog 6; Post: 30 min after last injection on day 8; 10 mg s.c. once daily for 8 days
Where a SMILES comes first, the peptide text is derived from it. [ ]: non-standard residue; d: D form. Hyp = O=C(O)[C@@H]1C[C@@H](O)CN1
readout: Calcium (mg/dL)
Reply numerically in mg/dL, unit not repeated.

INPUT: // lookup Calcium for CC(C)[C@@H]1NC(=O)[C@@H]2C[C@@H](O)CN2C(=O)[C@H]([C@@H](C)O)NC(=O)[C@H](CCCCN)NC(=O)[C@H](CCC(=O)O)NC(=O)[C@H](CC(N)=O)NC(=O)CNC(=O)[C@@H]2C[C@@H](O)CN2C(=O)[C@H](CC(N)=O)NC1=O [AFPep] (cyclo(EKT[Hyp]VN[Hyp]GN))
OUTPUT: 10

----------
assay: 8-day repeat-dose study, tolerability (blood chemistry, hematology, adverse events) in tumor-bearing dogs; format: in vivo, dog; conditions: Dog 5; Post: 30 min after last injection on day 8; 10 mg s.c. once daily for 8 days
Where a SMILES comes first, the peptide text is derived from it. [ ]: non-standard residue; d: D form. Hyp = O=C(O)[C@@H]1C[C@@H](O)CN1
readout: Platelets

INPUT: Would you kindly share the measured Platelets for CC(C)[C@@H]1NC(=O)[C@@H]2C[C@@H](O)CN2C(=O)[C@H]([C@@H](C)O)NC(=O)[C@H](CCCCN)NC(=O)[C@H](CCC(=O)O)NC(=O)[C@H](CC(N)=O)NC(=O)CNC(=O)[C@@H]2C[C@@H](O)CN2C(=O)[C@H](CC(N)=O)NC1=O [AFPep] (cyclo(EKT[Hyp]VN[Hyp]GN)) ?
OUTPUT: 462 10^3/µL
